I'd appreciate it if you could supply pIC50 values for the items below.
target: human IL-17A (hIL-17A) (Homo sapiens, UniProt Q16552); assay: IL-17A enzyme-linked immunosorbent assay (competitive ELISA, receptor-ligand binding)
Sequence (Q16552 24-155): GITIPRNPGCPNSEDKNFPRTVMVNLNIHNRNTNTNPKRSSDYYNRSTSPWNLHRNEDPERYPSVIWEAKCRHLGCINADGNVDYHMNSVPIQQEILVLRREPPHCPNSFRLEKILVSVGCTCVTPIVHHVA
Give bare numbers, as −log10 of the molar value.

compound	pIC50
Cn1nccc1C(=O)N[C@H](C(=O)Nc1ccc(N2CCOCC2)nc1)C1c2ccccc2CC12CC2 (some centres unmarked)	7.01
Cc1n[nH]c(C)c1-c1ccc(NC(=O)[C@@H](NC(=O)c2nonc2C(C)C)C2c3cc(F)cc(F)c3OCC23CC3)cc1 (some centres unmarked)	6.38

Provide the reported pIC50 of each entry below, same order.
1. Cc1n[nH]c(C)c1-c1ccc(NC(=O)[C@@H](NC(=O)c2conc2C2CC2)C2c3cc(F)c(F)cc3OCC23CC3)cn1 (some centres unmarked)
2. CCc1nonc1C(=O)N[C@H](C(=O)Nc1ccc(-c2c(C)n[nH]c2C)nc1)C1c2ccc(F)cc2OCC12CC2 (some centres unmarked)
3. Cc1nonc1C(=O)N[C@H](C(=O)Nc1ccc(-c2c(C)n[nH]c2C)cc1)C1c2c(F)cc(F)cc2OCC12CC2 (some centres unmarked)

1. 6.78
2. 7.15
3. 6.40
